Test system: VDR:RXRa (NR concentration 270 nM, RXRa partner concentration 90 nM)
Experiment: PBM binding z-score (relative to random genomic background probes); higher = stronger binding; sequences stand for … in GC…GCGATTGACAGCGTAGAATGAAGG
Please go through the items and note down their PBM binding z-score.

Reported PBM binding z-score for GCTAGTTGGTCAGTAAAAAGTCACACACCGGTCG : what is it?
0.0507

Reported PBM binding z-score for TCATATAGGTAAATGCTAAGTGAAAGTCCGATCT : what is it?
0.987

Reported PBM binding z-score for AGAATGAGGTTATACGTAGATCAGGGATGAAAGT : what is it?
1.47

Reported PBM binding z-score for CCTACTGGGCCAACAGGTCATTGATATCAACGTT : what is it?
1.93

Reported PBM binding z-score for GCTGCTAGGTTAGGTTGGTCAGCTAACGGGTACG : what is it?
-0.323

Reported PBM binding z-score for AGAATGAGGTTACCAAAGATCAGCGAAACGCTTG : what is it?
1.33

Reported PBM binding z-score for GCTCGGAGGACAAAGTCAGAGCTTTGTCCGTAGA : what is it?
-0.556

Reported PBM binding z-score for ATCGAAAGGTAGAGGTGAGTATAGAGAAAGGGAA : what is it?
0.0851

Reported PBM binding z-score for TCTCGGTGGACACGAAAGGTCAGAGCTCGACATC : what is it?
2.84

Reported PBM binding z-score for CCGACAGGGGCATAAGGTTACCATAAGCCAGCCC : what is it?
1.1

Reported PBM binding z-score for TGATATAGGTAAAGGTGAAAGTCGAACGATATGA : what is it?
0.866

Reported PBM binding z-score for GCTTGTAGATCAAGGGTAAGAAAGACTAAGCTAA : what is it?
-0.559

Reported PBM binding z-score for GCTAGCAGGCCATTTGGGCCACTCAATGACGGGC : what is it?
-0.859

Reported PBM binding z-score for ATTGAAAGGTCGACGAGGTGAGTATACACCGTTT : what is it?
5.31

Reported PBM binding z-score for ATATGTAGGTTATCGGGTTATTCAGTTTGCGCAT : what is it?
3.47

Reported PBM binding z-score for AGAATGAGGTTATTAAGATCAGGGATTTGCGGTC : what is it?
2.6

Reported PBM binding z-score for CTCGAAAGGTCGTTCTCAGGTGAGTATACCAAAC : what is it?
3.95

Reported PBM binding z-score for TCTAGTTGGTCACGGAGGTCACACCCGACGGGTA : what is it?
5.67

Reported PBM binding z-score for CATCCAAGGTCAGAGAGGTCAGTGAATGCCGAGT : what is it?
7.55

###

Test system: PPARg DBDmut:RXRa IVT, anti-PPARg (DBD mutation: PPARg1 K132A/R137A, NR concentration 270 nM, RXRa partner concentration 90 nM)
Test: PBM binding z-score (relative to random genomic background probes); higher = stronger binding; sequences stand for … in GC…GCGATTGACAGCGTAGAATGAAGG
measurementName: PBM binding z-score
API note: the answer field is a bare number with no unit suffix.

Reported PBM binding z-score for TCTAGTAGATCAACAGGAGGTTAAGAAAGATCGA : what is it?
0.0951

Reported PBM binding z-score for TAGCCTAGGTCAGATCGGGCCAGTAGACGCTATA : what is it?
-0.87

Reported PBM binding z-score for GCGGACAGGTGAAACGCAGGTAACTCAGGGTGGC : what is it?
-0.773
